# assay.info: Pharmacokinetics test in beagles after oral administration of Compound A (plasma, HPLC-FL method)
# Format: in vivo, beagle
# measurement.setup: male, beagle, dog, plasma, po, 0.3 mg/kg, type I (EM) beagles, n = 5; plasma after oral Compound A 0.3 mg/kg
assay.readout: AUC(0-inf) (ng·h/mL)
# output: bare number, implied unit ng·h/mL

Please report the measured AUC(0-inf) for CCn1c(=O)nc(C2CCCCC2)c2ccc(C)nc21 2.8

====

# assay.info: Pharmacokinetics test in beagles after oral administration of Compound A (plasma, HPLC-FL method)
# Format: in vivo, beagle
# measurement.setup: male, beagle, dog, plasma, po, 0.3 mg/kg, type II (PM) beagles, n = 5; plasma after oral Compound A 0.3 mg/kg
assay.readout: Cmax
Phrase the answer as number then unit, nothing more needed.

Please report the measured Cmax for CCn1c(=O)nc(C2CCCCC2)c2ccc(C)nc21 [Compound A] 24 ng/mL

====

# assay.info: Pharmacokinetics test in beagles after oral administration of Compound A (plasma, HPLC-FL method)
# Type: in vivo, beagle
# measurement.setup: male, beagle, dog, plasma, po, 0.3 mg/kg, type II (PM) beagles, n = 5; plasma after oral Compound A 0.3 mg/kg
assay.readout: half-life (min)
# output: bare number, implied unit min

Please report the measured half-life for CCn1c(=O)nc(C2CCCCC2)c2ccc(C)nc21 [Compound A] 48

====

# assay.info: Pharmacokinetics test in beagles after oral administration of Compound A (plasma, HPLC-FL method)
# Type: in vivo, beagle
# measurement.setup: male, beagle, dog; type I (EM) beagles, n = 5; plasma after oral Compound A 0.3 mg/kg
assay.readout: Tmax (min)
# output: bare number, implied unit min

Please report the measured Tmax for CCn1c(=O)nc(C2CCCCC2)c2ccc(C)nc21 18

====

# assay.info: Pharmacokinetics test in beagles after oral administration of Compound A (plasma, HPLC-FL method)
# Format: in vivo, beagle
# measurement.setup: male, beagle, dog, plasma, po, 0.3 mg/kg, type I (EM) beagles, n = 5; plasma after oral Compound A 0.3 mg/kg
assay.readout: half-life (min)
# output: bare number, implied unit min

Please report the measured half-life for CCn1c(=O)nc(C2CCCCC2)c2ccc(C)nc21 [Compound A] 36
